Molecular target: recombinant mouse Nape-pld (Mus musculus)
Sequence (Q8BH82 1-396): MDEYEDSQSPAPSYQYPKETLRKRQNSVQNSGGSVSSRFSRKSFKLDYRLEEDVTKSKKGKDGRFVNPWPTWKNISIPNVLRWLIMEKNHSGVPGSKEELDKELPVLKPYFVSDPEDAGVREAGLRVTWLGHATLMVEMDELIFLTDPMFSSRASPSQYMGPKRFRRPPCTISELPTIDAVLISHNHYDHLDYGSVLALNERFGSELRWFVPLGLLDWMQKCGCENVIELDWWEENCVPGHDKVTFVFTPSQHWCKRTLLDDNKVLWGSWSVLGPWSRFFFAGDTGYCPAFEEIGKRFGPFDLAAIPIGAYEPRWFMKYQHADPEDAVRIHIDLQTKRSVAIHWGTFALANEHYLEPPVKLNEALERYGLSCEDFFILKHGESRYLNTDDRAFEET
Test: PED-A1 hydrolysis, fluorescence, initial rate
Format: biochemical
Observable: pIC50
Kindly note that pIC50 refers to -log10 of the concentration in mol/L and answer with the value alone.

get_value(item= `Oc1c(Br)cc(Cl)cc1Cc1cc(Cl)cc(Br)c1O` , readout=pIC50) returns 5.30

get_value(item= `Oc1c(Cl)cc(Cl)cc1Cc1cc(Cl)cc(Cl)c1O` , readout=pIC50) returns 4.58

get_value(item= `CC(C)(c1cc(Cl)c(O)c(Cl)c1)c1cc(Cl)c(O)c(Cl)c1` , readout=pIC50) returns 4.19

get_value(item= CCCCC(=O)O[C@H]1CC[C@H]2[C@@H]3CCc4cc(O)ccc4[C@H]3CC[C@]12C [Inh 7, estradiol valerate] , readout=pIC50) returns 5.11

----------
Field: pIC50. Provide a value for each of the molecules that follow.
Target: recombinant mouse Nape-pld (Mus musculus)
Sequence (Q8BH82 1-396): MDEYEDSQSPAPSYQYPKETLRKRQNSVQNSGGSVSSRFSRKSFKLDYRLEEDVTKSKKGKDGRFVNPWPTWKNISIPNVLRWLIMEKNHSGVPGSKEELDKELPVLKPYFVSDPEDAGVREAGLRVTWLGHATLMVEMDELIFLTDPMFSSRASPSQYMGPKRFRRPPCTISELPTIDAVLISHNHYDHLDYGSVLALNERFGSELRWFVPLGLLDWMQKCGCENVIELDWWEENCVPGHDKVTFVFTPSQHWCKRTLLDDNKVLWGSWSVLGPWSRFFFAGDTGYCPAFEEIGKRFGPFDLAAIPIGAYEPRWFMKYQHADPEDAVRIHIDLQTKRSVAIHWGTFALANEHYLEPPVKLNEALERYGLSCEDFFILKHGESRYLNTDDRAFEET
Experiment: biochemical
Kindly note that pIC50 refers to -log10 of the concentration in mol/L and answer with the value alone.

get_value(item= `Oc1c(Cl)cc(Cl)cc1Sc1cc(Cl)cc(Cl)c1O` , readout=pIC50) returns 5.68

get_value(item= `Cc1cc2c(C(C)C)c(O)c(O)c(C=O)c2c(O)c1-c1c(C)cc2c(C(C)C)c(O)c(O)c(C=O)c2c1O` , readout=pIC50) returns 5.16

get_value(item= `COc1c(O)cc2oc3cc(O)c(CC=C(C)C)c(O)c3c(=O)c2c1CC=C(C)C` , readout=pIC50) returns 5.55

get_value(item= `Oc1c(Cl)cc(Cl)c(Cl)c1Cc1c(O)c(Cl)cc(Cl)c1Cl` , readout=pIC50) returns 5.80

get_value(item= `[H]/N=C(\N/C(=N/[H])NCCCCCCNC(=N)NC(=N)Nc1ccc(Cl)cc1)Nc1ccc(Cl)cc1` , readout=pIC50) returns 4.98

get_value(item= `O=c1c2ccccc2[se]n1-c1ccccc1` , readout=pIC50) returns 5.55

get_value(item= `COc1ccc(C(=O)c2ccccc2O)c(O)c1` , readout=pIC50) returns 4.72

get_value(item= `CC1=C(O)C(=O)C=C2C1=CC=C1[C@@]2(C)CC[C@@]2(C)[C@@H]3C[C@](C)(C(=O)O)CC[C@]3(C)CC[C@]12C` , readout=pIC50) returns 5.52

get_value(item= `CC(C)=CCC[C@]1(C)C=Cc2c(O)c3c(c(CC=C(C)C)c2O1)O[C@]12C(=C[C@@H]4C[C@H]1C(C)(C)O[C@@]2(C/C=C(/C)C(=O)O)C4=O)C3=O` , readout=pIC50) returns 5.00
